Examples of variants with documented polymerase ribozyme fitness (log ratio) follow.
B1: TPR 5TU (parent)
chain: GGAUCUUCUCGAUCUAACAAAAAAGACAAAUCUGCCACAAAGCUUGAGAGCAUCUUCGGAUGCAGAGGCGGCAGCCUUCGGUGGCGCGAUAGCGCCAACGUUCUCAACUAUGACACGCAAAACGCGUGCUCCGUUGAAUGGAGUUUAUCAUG

- Variants of: B1
- Test summary: polymerase ribozyme fitness, log enrichment relative to wild type (log ratio); higher = more active; in vitro selection for triplet polymerase activity
Fewer inactive variants are shown than the library holds.
// return a plain number; no unit text

# count of solved cases: 5
| Variant notation | Recorded value |
| --- | --- |
| A40C G50U C69G C116U | -3.24 |
| G81C C85U A89U A142G | -1.67 |
| U13G | -0.261 |
| U61A C96U | -1.32 |
| A47C A150U | -0.247 |

Input: Fill in the blank: the reported polymerase ribozyme fitness (log ratio) of C72U A98U is ____.
Output: 0.351

Input: Fill in the blank: the reported polymerase ribozyme fitness (log ratio) of G48U G86U is ____.
Output: -1.58

Input: Fill in the blank: the reported polymerase ribozyme fitness (log ratio) of C8U A60U is ____.
Output: -3.79

Input: Fill in the blank: the reported polymerase ribozyme fitness (log ratio) of U45G C116U is ____.
Output: 0.00932

Input: Fill in the blank: the reported polymerase ribozyme fitness (log ratio) of A12G C93G is ____.
Output: -2.99

Input: Fill in the blank: the reported polymerase ribozyme fitness (log ratio) of C54U C103A is ____.
Output: -2.22

Input: Fill in the blank: the reported polymerase ribozyme fitness (log ratio) of G58A A73U C96U is ____.
Output: -0.178

Input: Fill in the blank: the reported polymerase ribozyme fitness (log ratio) of U61A C108U is ____.
Output: -3.86
